Reference source: PubChem BioAssay (NCI)

# Tested on: HOP-62 NSCLC
# procedure text: NCI-60 one-dose screen, 48 h (100 = growth as untreated, 0 = no growth, -100 = all killed)
# condition notes: 10 µM unless noted
The panel holds about 83,000 compounds, 20% with a hit somewhere; the sample as a whole holds those more often.
# class assignment by measured growth: bottom range (below 40%), center range (40% to below 80%), top range (80% or more)

| compound | answer label |
| --- | --- |
| C/C(=N/O)c1ccc(NC(=O)Cn2nc(-c3ccc(Cl)cc3)nc2N)cc1 | top range |
| COc1ccc(OC)c(NCC(=O)n2nc(/C=C\c3ccc(O)c(OC)c3)cc2/C=C\c2ccc(O)c(OC)c2)c1 | bottom range |
| O=C(c1ccccc1)[C@H]1[C@@H]2CCCN2[C@]2(C(=O)Nc3ccc(F)cc32)[C@]12C(=O)Nc1ccccc12 | top range |
| CCc1c(C)c2cc(-n3c(-c4ccc(OC)cc4)csc3=N)c(O)c(C)c2oc1=O | bottom range |
| CC(C)CNCC(=O)Nc1ccc(Cc2ccc(NC(=O)CNCC(C)C)cc2)cc1 | center range |

Challenge: Form: Item = `CCCOC(=O)c1ccc([N+](=O)[O-])o1` ; Class = ?
Response given: top range

Challenge: Would you mind sorting `COc1cc(NC(=O)C#Cc2ccccc2)c(OC)cc1Cl` into the appropriate category?
Response given: center range

Challenge: For this compound, which bin applies? `C=C1C(=O)O[C@H]2[C@H]1CC/C(COC(=O)c1ccc3ccccc3c1)=C\CC[C@@]1(C)O[C@@H]21`
Response given: bottom range

Challenge: Record `CNCCCOc1c(Br)cc(CCNC(=O)/C(Cc2cc(Br)c(OC)c(Br)c2)=N/O)cc1Br` — which class?
Response given: bottom range

Challenge: Band for the recorded growth of `O=C(O)c1cn(C2CC2)c2cc(N3CCN(C(=O)CSc4nc(NS(=O)(=O)c5ccccc5)cc(=O)[nH]4)CC3)c(F)cc2c1=O` ?
Response given: top range

Challenge: Sort into band: COc1ccc(C2=NN(C(=O)COc3ccc(Cl)cc3)C(O)(c3cc(F)c(Cl)cc3Cl)C2)cc1OC (centres undefined)
Response given: center range

Challenge: Could you tell me which band `O=C1c2ccccc2C(=O)c2c(NCCN=Cc3c(O)ccc4ccccc34)cccc21` belongs to?
Response given: center range

Challenge: Looking at `Clc1ccc(CN2COc3c(ccc4cccnc34)C2)cc1Cl` , which class would you pick?
Response given: bottom range

Challenge: Bin? `COc1cc2c(cc1OCCCCC(=O)Nc1ccc(-c3nc4ccccc4s3)cc1)N=C[C@@H]1CCCN1C2=O`
Response given: bottom range

Challenge: Band assignment needed for `COc1ccc(-c2cnc(-c3ccc(F)cc3)[nH]2)cc1` please.
Response given: center range

Challenge: Exercise: read the entry CC1OC(n2c3ccccc3c3c4c(c5c6ccccc6[nH]c5c32)C(=O)N(CCN[C@@H]2CCC[C@H]2N)C4=O)CC(O)C1O (some centres undefined) and state which class it falls under.
Response given: bottom range

Challenge: Kindly identify the class of `Cc1ncc(CO)c(C(=O)O)c1O` .
Response given: top range

Challenge: Which category does the recorded growth put `O=C(O)c1ccc2nc(-c3ccc(OCCCCCOc4ccc(-c5nc6ccc(C(=O)O)cc6[nH]5)cc4)cc3)[nH]c2c1` in?
Response given: top range

Challenge: Which category fits this record: `COc1ccc(-c2[nH]c3ccccc3c2/C=C(\C#N)S(=O)(=O)c2ccccc2)cc1`
Response given: bottom range

Challenge: Pick a category. Item: CC(=O)N1N=C2N(Cc3ccccc3)C(=O)c3c(sc4c3CCCC4)N2C1c1cn(-c2ccccc2)nc1-c1ccc(Cl)cc1 (centres undefined)
Response given: top range

Challenge: Assign a bin to `N#Cc1c(N)nc(Cl)c(C#N)c1C(=O)c1ccccc1`
Response given: center range

Challenge: Bin? `Cc1cc(N2CCOCC2)nc(N(CCNc2ccnc3cc(Cl)ccc23)Cc2ccco2)n1`
Response given: bottom range

Challenge: Assign a bin to `C#C[C@H](O)/C=C/CCCCCCC#C[C@H](O)CC[C@@H](O)C#CCCCCCC/C=C/[C@@H](O)C#C`
Response given: top range

Challenge: Which growth band matches `COc1cc(-c2nc3ccccc3s2)ccc1OCc1nc2n(n1)S(=O)(=O)c1ccccc1N2C` ?
Response given: center range

Challenge: Exam item: assign `c1coc(CSc2ncnc3nc[nH]c23)c1` to the correct category.
Response given: top range

Challenge: Class? Entry: Nc1nc2ccc(CNc3ccc(C(=O)NC(CC(=O)O)C(=O)O)cc3)cc2c(=O)[nH]1 (centres undefined)
Response given: bottom range
